# Test system: chromodacryorhea induced by carbacholine
# test summary: Anticholinergic activity in rats (antagonism against chromodacryorhea induced by carbacholine)
# Format: in vivo, Sprague-Dawley male rats
# assay conditions: rats; p.o.; B = anticholinergic ED50, A = antiulcer ED50
reported metric: B/A (ratio of ED50's for oral anti-cholinergic and anti-ulcer activities)

# compound, result
measured = [
    ("CCC1c2c(ncn2CC)CCN1C(=O)NC(C)C (stereo not drawn)", "> 5.5"),
    ("CCC1c2nc[nH]c2CCN1C(=N)NC(=O)c1ccccc1 (stereo not drawn)", "> 4"),
    ("CC(C)NC(=S)N1CCc2ncn(C)c2C1", "> 5.8"),
]

Every entry's value here was drawn from patent US4141899A.
